Test system: K4 kissing-loop RNA reporter
Protocol details: apparent KD of K4 kissing-loop reporter; higher = weaker reporter binding
Recorded conditions: Eterna round: R107; input ligand: tryptophan 2.4 mM
Can you tell me apparent KD of K4 kissing-loop reporter for the items I'm about to list?
Kindly answer with a numeric value in nM, unit omitted.

-- ask Form field: apparent KD of K4 kissing-loop reporter recorded for CAUACGCAUGGAGGAUAUGAGAUUUCUCAUGUCAUUUAAUAUUCUCAGUGAUGUUGAGAAUUUGGCUCAGAAGGCCAUGUGUAUG [Ex FMN B 20] with K4 kissing-loop RNA reporter (enter value)
-- reply 403

-- ask Any idea what apparent KD of K4 kissing-loop reporter came out for AAGCCAGAGAUUGCUGCGGGUUCCAGAGAUACCAGCCGUAUUGAAGGCCCUUGGCAGCUCGAGUGAUGUUCGAGCCGUCUCUAGC [Bisore] on K4 kissing-loop RNA reporter?
-- reply 110

-- ask API: value(readout=apparent KD of K4 kissing-loop reporter, system=K4 kissing-loop RNA reporter) for record AUGCUUUUAAUAACACUAUAUACAGCUGAAGGAGCGACAAUAAAGUCAGGUAGGUCGCAGAAUAGAUGAGUGAUGUUCAUUUUUA [#05 K4 Arginine A Exclusion];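 note: bound reporter read as fluorescence of individual clusters on recovered sequencing chips by microscopy, with normalized cluster intensities fitted with a binding model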
-- reply 76.9

* * *

Tested on: MS2 coat protein
Protocol details: apparent KD of MS2 coat protein, switch ON state; designed switch direction (-1 OFF switch, 1 ON switch): 1; higher = weaker reporter binding
Recorded conditions: FMN input: 0 or 200 uM; Eterna round: R93 (includes R88 designs)
Quantity name: apparent KD of MS2 coat protein (nM)
All answers are understood in nM, so give the number only.

-- ask Please look up its apparent KD of MS2 coat protein: AAAAACAUGGUGUAGGAUAUAUUAAUAGUCACAUGAGGAUCACCCAUGUUCAGAUAUCUGAACGAGUAGAAGGACGAUGAAAAAA [Mat - Same state - Malcolm Mod - D109]
-- reply 454

-- ask apparent KD of MS2 coat protein lookup needed for CACAGAGUGGCGUAGGAUAUGUACAUGAGUACAUGAGGAUCACCCAUGUGGGCGUGAAAUUACGAGCAGAAGGGCGUCGCCUGUG [Edradi] , thanks.
-- reply 24.4

-- ask Find the recorded apparent KD of MS2 coat protein belonging to GGGAGGAAGAGAGAGGAUAUCCAAAGGAAAACAUGAGGAUCACCCAUGUAAAAGGUAGGAAAUUGGGAGAAGGCUCAAGAGAAUG [salish99-ss2-055] and report it.
-- reply 24.1

-- ask Given AACUAACAUGAGGAUCACCCAUGUUACAGCAGUUGAGGAUAUGUGGGUGAAAAUAGCACGGCAGAAGGCGAGUGUA [SameState1 Malc#23] , state its recorded apparent KD of MS2 coat protein.
-- reply 237

-- ask What value of apparent KD of MS2 coat protein has been reported for the following sequence? AAGAAACAUGAGGAUCACCCAUGUAAGAUAAACACAGGAUAUGCGAAAAUAAACAAAUAAGCAGAAGGGUGAAGAA [Mat - Same State 1 - Tesla mod - 65]
-- reply 19.5

-- ask So what's the measured apparent KD of MS2 coat protein for this one? AAUAAGACUAGCAAGGAUAUCGAAAACGAGACAUGAGGAUCACCCAUGUAACAAGUAAAAGUAAACGAGAAGGUGCAGGGUGAAA [JR_SS002_Sub301]
-- reply 56.9

-- ask Quick one: apparent KD of MS2 coat protein for AAAAAAUAAAAAAAGGAUAUAAAUGGUACAACAUGAGGAUCACCCAUGUAGUACCAAAAAAUAAAAAAGAAGGAAAAAUAAAAAA [SS2: MS2 22] ?
-- reply 20.8

-- ask Requested field: apparent KD of MS2 coat protein. Item: AAAAGACAUGAGGAUCACCCAUGUAAAGACAUAGGAGGAUAUGUCAUGAAAAAAGACUUGACAGAAGGCCUUUGUC [SS1 - 50]
-- reply 20.4

-- ask What value of measured apparent KD of MS2 coat protein is listed for GUAGAACAUGAGGAUCACCCAUGUGAAGACGCAUGAGGAUAUAUAAGUAAAUAGCAUAAGAUAGAAGGCAUGAUAA [JR_SS001_Sub1702] ?
-- reply 76

-- ask Please give the measured apparent KD of MS2 coat protein for this sequence: GGGAAGAAGAGAGAGGAUAUCCAAAGGAAAACAUGAGGAUCACCCAUGUAAAAGGUAGGAAAUUGGGAGAAGGCUCAAAAGAGAG [salish99-ss2-034]
-- reply 20.6

-- ask For the sequence shown here, UAAGUACAUGAGGAUCACCCAUGUUGGAAUAGAGCAGGAUAUGUGCAGAGGGAAAUAAAAACAGAAGGGCUAAGAA [Same State #3] , give the reported apparent KD of MS2 coat protein.
-- reply 25.9

-- ask Look up apparent KD of MS2 coat protein for this sequence: AGAAAUAAAAGACAGGAUAUCCAAAAGAAAACAUGAGGAUCACCCAUGUAAAGAAAAUAAAAAUGGGAGAAGGGUCAAAUAAAAA [Mat - Same State 2 - JL mod - D49]
-- reply 34.4

-- ask Quick one: apparent KD of MS2 coat protein of AGAAAUAAAAGAGAGGAUAUCCAAAAGAAAACAUGAGGAUCACCCAUGUAAAAGAAAAUAAAAUGGGAGAAGGCUCACAUAAAGA [Topaz 34] ?
-- reply 21.1

-- ask # lookup: apparent KD of MS2 coat protein of AAAAGACAUGAGGAUCACCCAUGUAAAAACGUAGGAGGAUAUGUAUGGAAACCAGACUGUACAGAAGGCCUUUGUC [SS1 - 73]
-- reply 20

-- ask Record request: apparent KD of MS2 coat protein value, item AUGGUCAAGUGUGAGGAUAUCCAGGCUCCCACAUGAGGAUCACCCAUGUCUUAAAGGGCGUAAAGGGAGAAGGUACGAACGCCAC [Diatenat]
-- reply 35.6
